These measurements were taken from ChEMBL document CHEMBL3580578.

# experiment: Kinetic solubility of the compound in PBS buffer at pH 7.4
property: solubility kinetic (µM)
A number alone suffices; assume µM.

Answer with the recorded solubility kinetic of C[C@@H](OC(=O)Cc1ccc(Cl)c(SC2=C(O)CC(c3c(Cl)cccc3Cl)CC2=O)c1)c1ccccc1 (stereo partly drawn) only.
61

Answer with the recorded solubility kinetic of CC(C)Oc1ccc(Cl)c(C2CC(=O)C(Sc3cc(O)ccc3C#N)=C(O)C2)c1Cl (stereo not drawn) only.
50

Answer with the recorded solubility kinetic of COc1ccc(Cl)c(SC2=C(O)CC(c3c(Cl)ccc(NC4CCOCC4)c3Cl)CC2=O)c1 (stereo not drawn) only.
49

---

# experiment: Plasma protein binding in human
# Type: ADME, cell-free
# run_conditions: read-out: PPB
Catalogue of fraction unbound readings, one per entry.

CC(C)Oc1ccc(Cl)c(C2CC(=O)C(Sc3cc(O)ccc3C#N)=C(O)C2)c1Cl (configuration not stated) :: < 0.001

# ---- query compound ----
Answer with the recorded fraction unbound of COc1ccc(Cl)c(SC2=C(O)CC(c3c(Cl)ccc(NC4CCOCC4)c3Cl)CC2=O)c1 (configuration not stated) only.
< 0.001
